molecular target: DNA-directed RNA polymerase subunit beta (Escherichia coli (strain K12)) (UniProt P0A8V2); assay: bacterial RNA polymerase transcription inhibition – biochemical (AID 559);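 note: 0% = enzyme without compound and 100% = no enzyme blank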; conditions: E. coli RNA polymerase, fluorescence transcription assay; hits give high values;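 tested at 10 µM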
Sequence (P0A8V2 whole entry, looked up): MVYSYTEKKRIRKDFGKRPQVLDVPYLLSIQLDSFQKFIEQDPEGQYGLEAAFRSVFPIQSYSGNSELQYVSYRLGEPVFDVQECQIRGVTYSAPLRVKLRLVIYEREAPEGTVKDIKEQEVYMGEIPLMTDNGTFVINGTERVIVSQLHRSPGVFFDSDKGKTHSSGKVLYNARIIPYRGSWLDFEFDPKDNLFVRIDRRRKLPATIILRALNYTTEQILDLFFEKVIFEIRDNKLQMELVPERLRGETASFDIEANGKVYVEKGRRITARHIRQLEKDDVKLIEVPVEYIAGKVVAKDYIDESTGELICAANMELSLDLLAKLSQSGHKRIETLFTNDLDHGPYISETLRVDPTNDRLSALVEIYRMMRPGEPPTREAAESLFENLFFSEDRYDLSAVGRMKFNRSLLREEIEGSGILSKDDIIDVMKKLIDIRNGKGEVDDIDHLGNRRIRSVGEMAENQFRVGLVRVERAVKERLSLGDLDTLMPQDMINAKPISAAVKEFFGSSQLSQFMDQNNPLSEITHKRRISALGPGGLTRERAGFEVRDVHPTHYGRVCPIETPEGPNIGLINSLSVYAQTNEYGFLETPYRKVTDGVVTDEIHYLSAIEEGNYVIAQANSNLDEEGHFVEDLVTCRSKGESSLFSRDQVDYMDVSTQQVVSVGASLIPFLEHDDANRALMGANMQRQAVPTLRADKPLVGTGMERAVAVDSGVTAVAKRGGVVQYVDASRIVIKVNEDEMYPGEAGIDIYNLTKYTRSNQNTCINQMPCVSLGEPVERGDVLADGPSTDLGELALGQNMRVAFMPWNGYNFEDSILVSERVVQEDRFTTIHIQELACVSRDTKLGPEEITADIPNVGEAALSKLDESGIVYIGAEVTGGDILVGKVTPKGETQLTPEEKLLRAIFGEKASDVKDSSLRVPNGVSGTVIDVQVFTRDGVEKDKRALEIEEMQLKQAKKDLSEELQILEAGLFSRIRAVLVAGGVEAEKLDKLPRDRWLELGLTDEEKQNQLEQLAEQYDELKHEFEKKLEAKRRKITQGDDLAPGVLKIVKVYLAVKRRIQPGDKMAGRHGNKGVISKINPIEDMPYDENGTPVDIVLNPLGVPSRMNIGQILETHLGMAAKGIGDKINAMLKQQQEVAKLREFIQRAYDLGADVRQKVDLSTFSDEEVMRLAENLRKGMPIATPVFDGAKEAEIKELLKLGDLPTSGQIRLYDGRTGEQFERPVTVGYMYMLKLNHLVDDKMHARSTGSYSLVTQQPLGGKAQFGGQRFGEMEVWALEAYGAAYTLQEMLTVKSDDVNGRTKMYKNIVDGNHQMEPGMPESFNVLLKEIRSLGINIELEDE
Hit rate of the full screen: of about 62,000 compounds, about 100 (0.2%) were called active. This excerpt belongs to a sample that is enriched for actives.
In this section we review reported inhibition values for a set of molecules.

1) O=C(CCCN1C(=O)CCC1=O)Nc1ccc(Cl)c(C(F)(F)F)c1: -1.3% (inactive)

Ask: Name the reported inhibition value associated with the molecule CCOC(=O)C1C(=O)C=C(c2ccc(OC)cc2)CC1c1ccco1 (stereo not drawn)
Reply: 0.68% (inactive)

Ask: // next record CCOc1ccccc1Nc1nnc(SCc2ccc(C(=O)OC)o2)s1
Reply: 3.87% (inactive)

Ask: Further, for CC(C)NS(=O)(=O)c1ccc(NC(=O)c2cccnc2)cc1 ?
Reply: 4.79% (inactive)

Ask: Next molecule up: Cn1c(=O)c2c(nc(N3CCCCCC3)n2CC(=O)c2ccc(Br)cc2)n(C)c1=O
Reply: 6.56% (inactive)

Ask: And O=C(Nc1ccccc1N1CCCCC1)c1ccc2nccnc2c1 ?
Reply: 5.19% (inactive)

Ask: Entry COc1ccc(Br)cc1/C=N/n1c(C)nnc1C please
Reply: 11.2% (inactive)

Ask: Another molecule to check: C=CCNc1nnc(SCC(=O)N2CCCCC2)c2ccccc12
Reply: 5.18% (inactive)

Ask: Let us now turn to CC(=O)Nc1ccc(S(=O)(=O)N2CCN(C3CCCCCCC3)CC2)cc1
Reply: 4.11% (inactive)

Ask: Further, for Cc1cc(C)nc(NC(=O)Nc2ccccc2C(F)(F)F)n1 ?
Reply: 3.47% (inactive)

Ask: Please give the result for O=C(O)C1CC=CCC1C(=O)NCCc1ccccc1 (stereo not drawn) too.
Reply: -1.18% (inactive)
